- SYSTEM_UNDER_TEST: Prostaglandin E2 receptor EP2 subtype (Homo sapiens) (UniProt P43116)
- Sequence (P43116 whole entry, looked up): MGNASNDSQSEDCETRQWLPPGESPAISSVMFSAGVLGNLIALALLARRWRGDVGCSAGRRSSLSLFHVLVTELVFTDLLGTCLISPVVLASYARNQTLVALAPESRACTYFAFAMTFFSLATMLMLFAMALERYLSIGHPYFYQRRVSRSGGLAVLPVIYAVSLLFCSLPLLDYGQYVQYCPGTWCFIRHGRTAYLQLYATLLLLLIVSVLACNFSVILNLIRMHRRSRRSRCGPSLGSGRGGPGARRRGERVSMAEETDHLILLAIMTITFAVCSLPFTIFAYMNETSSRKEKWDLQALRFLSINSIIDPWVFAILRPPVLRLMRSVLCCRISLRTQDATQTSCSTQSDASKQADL
- ASSAY_PROTOCOL: human EP2 receptor antagonists, primary screen, TR-FRET cAMP, C6 glioma cells (AID 1422);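 note: rat C6 glioma host cells with rolipram phosphodiesterase inhibitor present; the protocol text gives 20 µM as final concentration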
- EXPERIMENTAL_SETUP: C6 glioma cells expressing human EP2, cAMP TR-FRET, at 25 µM, stronger effect = higher value; cells stimulated with saturating PGE2 unless noted
The campaign covered roughly 260,000 compounds. About 1,300 (0.5%) were called active. The entries come from a sample that favours actives as a whole.
inhibition overview

[
  {
    "COMPOUND": "COc1ccccc1CN(CCN(C)C)C(=O)Cc1nn(C)c(=O)c2ccccc12",
    "inhibition": "8.64% (inactive)"
  },
  {
    "COMPOUND": "COc1cc([C@@H]2c3cc4c(cc3[C@H](OC(C)=O)[C@H]3COC(=O)[C@H]23)OCO4)cc(OC)c1OC",
    "inhibition": "14.4% (inactive)"
  },
  {
    "COMPOUND": "CC(=O)O[C@H]1CC[C@@]2(C)C(=CCC3C2CC[C@]2(C)C(=O)CCC32)C1 (stereo not given in full)",
    "inhibition": "13.5% [setting not given] (inactive)"
  },
  {
    "COMPOUND": "c1ccc2[nH]c(C3CCNCC3)nc2c1",
    "inhibition": "6.74% (inactive)"
  }
]

stdin: Supply measured inhibition of Cc1nc(-c2ccc(F)cc2)c(CC(=O)N(CCN(C)C)C2CCCCC2)s1 in your reply.
stdout: 2.82% (inactive)

stdin: // fetch inhibition given entry O=C1C[C@@H]2OCC=C3CN4CC[C@]56c7ccccc7N1[C@H]5[C@H]2[C@H]3C[C@H]46 (tested in a mixture with another compound)
stdout: 43.4% (active)

stdin: Look up inhibition of Cc1ccc(C(C)N2CCNCC2)c(C)c1 (stereo not given) and report it.
stdout: 5.45% (inactive)

###

- SYSTEM_UNDER_TEST: Prostaglandin E2 receptor EP2 subtype (Homo sapiens)
- ASSAY_PROTOCOL: human EP2 receptor antagonists, primary screen, TR-FRET cAMP, C6 glioma cells (AID 1422);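 note: rat C6 glioma host cells with rolipram phosphodiesterase inhibitor present; the protocol text gives 20 µM as final concentration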
- EXPERIMENTAL_SETUP: C6 glioma cells expressing human EP2, cAMP TR-FRET, at 25 µM, stronger effect = higher value; cells stimulated with saturating PGE2 unless noted
In all, about 260,000 compounds went through this assay and about 1,300 (0.5%) were called active. Shown is part of a subset that was picked to be rich in actives.
Items are presented alongside their recorded inhibition.
Reply numerically in %, unit not repeated.

Known inhibition results, listed for orientation:
[
  {
    "COMPOUND": "CCn1cc(C(=O)c2ccco2)c2ccccc21",
    "PROPERTY_LABEL": "inhibition",
    "SCALE_UNIT": "%",
    "EXPERIMENTAL_VALUE": 1.27
  },
  {
    "COMPOUND": "COc1ccc(C2=NCC(=O)N(Cc3cccnc3)c3sc4c(c32)CCCC4)cc1",
    "PROPERTY_LABEL": "inhibition",
    "SCALE_UNIT": "%",
    "EXPERIMENTAL_VALUE": 7.58
  }
]

stdin: Answer briefly: inhibition recorded on Prostaglandin E2 receptor EP2 subtype (Homo sapiens) for COc1cc(CN2C3CCC2CC(O)(c2ccccc2F)C3)ccc1OC(C)C (stereo not drawn)
stdout: 6.07
